Test system: EKVX
Procedure Summary: NCI tumour cell line growth inhibition, 48 h
Calls of active or inactive are those of the source. No stated cut-off is given here; in the data, active = GI50 up to about 1.1 µM and inactive = higher.
Classes used: active, inactive

| Compound | Classification |
| --- | --- |
| COc1cc(/C=C\c2ccc(Cl)cc2)cc(OC)c1OC | active |
| CCOP(=O)(/C=C/n1cc(C)c(=O)[nH]c1=O)OCC | inactive |
| CCOP(=O)(OCC)C(F)(F)c1ccc(CC(NC(=O)OC(C)(C)C)C(=O)O)cc1 (stereo unspecified) | inactive |
| c1ccc(C(OCCN2CC3CCC(C2)N3)c2ccccc2)cc1 | inactive |
| Cc1nn(-c2ccccc2)c(C)c1/C=N/NC(=O)c1sc(=S)n(-c2ccc(Cl)cc2)c1N | inactive |
| CC(=O)N(CC(=O)C(=O)NNc1ccoc1)c1ccc(Cl)cc1 | inactive |
| COc1cc2c(cc1OC(=O)CC(C)O)C1C(OC2=O)C(OC(C)=O)C=C2CCN(C)[C@H]21 (stereo partly specified) | inactive |
| O=C(O)c1cc(C(=O)O)cc(N2C(=O)c3ccccc3C2=O)c1 | inactive |
| C/C(CC(=O)Nc1cc(C)ccc1C)=N\NC(=O)c1ccncc1 | inactive |
| c1ccc2c(c1)CN1CCCC1CN2 (stereo unspecified) | inactive |
| Cc1c(C(=O)CC(=O)C(=O)Nc2ccc(Cl)c(Cl)c2)[n+]([O-])c2ccccc2[n+]1[O-] | inactive |
